# experimental_target: Ubiquitin carboxyl-terminal hydrolase 1/WD repeat-containing protein 48 (Homo sapiens, UniProt O94782+Q8TAF3)
# Sequence (O94782 whole entry): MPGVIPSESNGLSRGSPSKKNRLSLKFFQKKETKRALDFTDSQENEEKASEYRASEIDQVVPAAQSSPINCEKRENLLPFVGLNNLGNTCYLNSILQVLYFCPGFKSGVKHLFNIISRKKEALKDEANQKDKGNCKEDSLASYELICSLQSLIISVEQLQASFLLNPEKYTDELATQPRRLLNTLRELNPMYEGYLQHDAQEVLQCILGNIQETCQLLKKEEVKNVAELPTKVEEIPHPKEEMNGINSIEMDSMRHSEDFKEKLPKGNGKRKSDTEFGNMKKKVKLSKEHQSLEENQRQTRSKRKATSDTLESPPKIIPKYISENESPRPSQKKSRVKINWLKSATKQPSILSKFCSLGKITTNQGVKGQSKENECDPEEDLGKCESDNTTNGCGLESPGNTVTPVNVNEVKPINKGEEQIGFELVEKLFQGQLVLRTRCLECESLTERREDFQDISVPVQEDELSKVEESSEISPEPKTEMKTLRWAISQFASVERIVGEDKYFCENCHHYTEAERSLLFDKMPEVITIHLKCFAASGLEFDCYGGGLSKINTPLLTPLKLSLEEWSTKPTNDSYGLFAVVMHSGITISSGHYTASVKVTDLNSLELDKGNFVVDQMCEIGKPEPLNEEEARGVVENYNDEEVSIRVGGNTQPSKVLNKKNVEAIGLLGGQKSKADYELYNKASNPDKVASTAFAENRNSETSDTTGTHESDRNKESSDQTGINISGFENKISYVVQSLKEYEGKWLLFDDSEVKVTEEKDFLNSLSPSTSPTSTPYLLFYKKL
# Sequence (Q8TAF3 whole entry): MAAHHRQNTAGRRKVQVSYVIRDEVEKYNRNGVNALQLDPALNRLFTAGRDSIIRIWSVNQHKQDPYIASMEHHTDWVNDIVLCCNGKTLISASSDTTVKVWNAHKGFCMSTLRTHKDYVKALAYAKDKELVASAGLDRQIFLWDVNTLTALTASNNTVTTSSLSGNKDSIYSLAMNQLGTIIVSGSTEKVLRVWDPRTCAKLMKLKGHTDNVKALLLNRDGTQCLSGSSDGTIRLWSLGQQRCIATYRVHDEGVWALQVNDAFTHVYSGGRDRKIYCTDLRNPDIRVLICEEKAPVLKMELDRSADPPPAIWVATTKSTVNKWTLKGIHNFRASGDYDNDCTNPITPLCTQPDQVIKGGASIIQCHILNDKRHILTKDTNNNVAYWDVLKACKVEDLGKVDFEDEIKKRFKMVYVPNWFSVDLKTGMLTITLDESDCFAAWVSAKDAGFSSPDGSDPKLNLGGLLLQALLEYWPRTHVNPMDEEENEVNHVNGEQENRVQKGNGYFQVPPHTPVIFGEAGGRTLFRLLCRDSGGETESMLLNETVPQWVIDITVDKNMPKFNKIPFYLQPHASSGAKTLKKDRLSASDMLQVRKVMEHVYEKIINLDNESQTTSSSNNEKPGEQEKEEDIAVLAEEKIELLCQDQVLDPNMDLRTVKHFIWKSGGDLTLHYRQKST
# experiment_summary: In Vitro USP1  Inhibitory Activity
measurement_kind: IC50 (µM)
Respond numerically; units are µM and should not be typed.

Param item = "COc1cnc(-c2cccc3ccn(C)c23)nc1NCc1ccc(-c2nc(C(F)(F)F)cn2C)cc1" ; retrieve measured IC50.
0.031

Moving on to "Cc1ncn(C(C)C)c1-c1nc(NCc2ccc(-c3nc(C(F)(F)F)cn3C)cc2)c2occc2n1"
0.0692

Subsequent entry: COc1cnc(-c2c(OC)ncnc2C2CC2)nc1NCc1ccc(-c2nc(C(F)(F)F)cn2C)cc1 [US20250289799, Example 29]
0.0048

Moving on to "Cc1cc(C(F)(F)F)nn1-c1ccc(CNc2nc(-c3ccccc3C(C)C)nc3ccoc23)cc1"
0.0044

Also "COc1cnc(-c2c(OC)ncnc2C2CC2)nc1NCc1ccc2c(c1)CCN(C(C)C)C2=O" ?
0.263

Check "COc1cnn(C(C)C)c1-c1nc(NCc2ccc(-n3nc(C(F)(F)F)cc3C)cc2)c2occc2n1" too.
0.0074

Queued: "COc1cnc(-c2c(C)cnn2C2CC2)nc1N(O)Cc1ccc(-c2nc(C(F)(F)F)cn2C)cc1"
0.043
